All figures here come from patent US20130041005A1.

Parameter: IC50. Scope: all listed entries.
# System Name: NRP-2 (Homo sapiens)
# Sequence (O60462 1-931): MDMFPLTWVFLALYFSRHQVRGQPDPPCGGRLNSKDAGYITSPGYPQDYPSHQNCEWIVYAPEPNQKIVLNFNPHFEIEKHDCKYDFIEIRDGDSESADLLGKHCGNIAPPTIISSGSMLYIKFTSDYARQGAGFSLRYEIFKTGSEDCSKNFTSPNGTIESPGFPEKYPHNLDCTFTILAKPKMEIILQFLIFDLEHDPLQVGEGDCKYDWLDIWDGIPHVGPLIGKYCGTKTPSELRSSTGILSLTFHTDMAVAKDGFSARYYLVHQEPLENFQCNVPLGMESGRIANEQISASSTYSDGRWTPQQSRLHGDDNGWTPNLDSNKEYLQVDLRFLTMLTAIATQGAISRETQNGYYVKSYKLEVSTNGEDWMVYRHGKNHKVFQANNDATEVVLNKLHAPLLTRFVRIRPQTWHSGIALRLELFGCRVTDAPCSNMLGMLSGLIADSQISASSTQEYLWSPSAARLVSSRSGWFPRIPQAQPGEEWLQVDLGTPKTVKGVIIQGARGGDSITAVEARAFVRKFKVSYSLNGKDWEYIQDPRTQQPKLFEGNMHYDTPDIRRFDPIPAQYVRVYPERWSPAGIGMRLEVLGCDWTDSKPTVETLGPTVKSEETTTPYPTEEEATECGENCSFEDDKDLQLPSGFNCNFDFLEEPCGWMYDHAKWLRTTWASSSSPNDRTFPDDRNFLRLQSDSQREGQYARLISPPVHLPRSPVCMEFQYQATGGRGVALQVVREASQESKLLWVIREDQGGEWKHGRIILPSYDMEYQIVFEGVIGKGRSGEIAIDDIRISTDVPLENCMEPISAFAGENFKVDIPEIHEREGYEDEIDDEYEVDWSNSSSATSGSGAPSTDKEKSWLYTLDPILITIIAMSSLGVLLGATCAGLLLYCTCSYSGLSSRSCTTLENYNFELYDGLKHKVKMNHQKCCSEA
Entry rule: numbers only, all in µM.

Chemical Smiles	Reading Unit	Reported Value
Cc1ccc(-c2nc3ccccc3[nH]2)cc1NC(=S)NC(=O)c1ccc2c(c1)OCCO2	µM	42

Note: attention shifts to another entry.
Lookup: IC50 / NRP-2 (Homo sapiens) / `O=C(NC(=S)Nc1cccc(-c2nc3ccccc3[nH]2)c1)c1ccc2c(c1)OCCO2` 35

====

Parameter: IC50. Scope: all listed entries.
# Tested on: NCI-H460
# Assay Protocol: WST-1 proliferation assay, NCI-H460
# Format: cell-based
# Condition Info: Homo sapiens; Lung NCI-H460; read-out: Anti-proliferative activity IC50 (μM) ± SD
Entry rule: numbers only, all in µM.

Compound	IC50 [µM]
O=C(NC(=S)Nc1cccc(-c2nc3ccccc3[nH]2)c1)c1ccc2c(c1)OCCO2 [Compound 2]	0.3

Lookup: IC50 / NCI-H460 / Cc1ccc(-c2nc3ccccc3[nH]2)cc1NC(=S)NC(=O)c1ccc2c(c1)OCCO2 [Compound 1] 0.5

====

# Tested on: GRANTA-519
# Assay Protocol: WST-1 proliferation assay, GRANTA-519
# Format: cell-based
# Condition Info: Homo sapiens; Mantle cell lymphoma GRANTA-519; read-out: Anti-proliferative activity IC50 (μM) ± SD
Parameter: IC50. Scope: all listed entries.
Entry rule: numbers only, all in µM.

Chemical Smiles	Reading Unit	IC50
O=C(NC(=S)Nc1cccc(-c2nc3ccccc3[nH]2)c1)c1ccc2c(c1)OCCO2	µM	0.5

Note: attention shifts to another entry.
Lookup: IC50 / GRANTA-519 / `Cc1ccc(-c2nc3ccccc3[nH]2)cc1NC(=S)NC(=O)c1ccc2c(c1)OCCO2` 1
